# measuredTarget: Calcium Channel (Oryctolagus cuniculus, UniProt P15381)
# Sequence (P15381 whole entry): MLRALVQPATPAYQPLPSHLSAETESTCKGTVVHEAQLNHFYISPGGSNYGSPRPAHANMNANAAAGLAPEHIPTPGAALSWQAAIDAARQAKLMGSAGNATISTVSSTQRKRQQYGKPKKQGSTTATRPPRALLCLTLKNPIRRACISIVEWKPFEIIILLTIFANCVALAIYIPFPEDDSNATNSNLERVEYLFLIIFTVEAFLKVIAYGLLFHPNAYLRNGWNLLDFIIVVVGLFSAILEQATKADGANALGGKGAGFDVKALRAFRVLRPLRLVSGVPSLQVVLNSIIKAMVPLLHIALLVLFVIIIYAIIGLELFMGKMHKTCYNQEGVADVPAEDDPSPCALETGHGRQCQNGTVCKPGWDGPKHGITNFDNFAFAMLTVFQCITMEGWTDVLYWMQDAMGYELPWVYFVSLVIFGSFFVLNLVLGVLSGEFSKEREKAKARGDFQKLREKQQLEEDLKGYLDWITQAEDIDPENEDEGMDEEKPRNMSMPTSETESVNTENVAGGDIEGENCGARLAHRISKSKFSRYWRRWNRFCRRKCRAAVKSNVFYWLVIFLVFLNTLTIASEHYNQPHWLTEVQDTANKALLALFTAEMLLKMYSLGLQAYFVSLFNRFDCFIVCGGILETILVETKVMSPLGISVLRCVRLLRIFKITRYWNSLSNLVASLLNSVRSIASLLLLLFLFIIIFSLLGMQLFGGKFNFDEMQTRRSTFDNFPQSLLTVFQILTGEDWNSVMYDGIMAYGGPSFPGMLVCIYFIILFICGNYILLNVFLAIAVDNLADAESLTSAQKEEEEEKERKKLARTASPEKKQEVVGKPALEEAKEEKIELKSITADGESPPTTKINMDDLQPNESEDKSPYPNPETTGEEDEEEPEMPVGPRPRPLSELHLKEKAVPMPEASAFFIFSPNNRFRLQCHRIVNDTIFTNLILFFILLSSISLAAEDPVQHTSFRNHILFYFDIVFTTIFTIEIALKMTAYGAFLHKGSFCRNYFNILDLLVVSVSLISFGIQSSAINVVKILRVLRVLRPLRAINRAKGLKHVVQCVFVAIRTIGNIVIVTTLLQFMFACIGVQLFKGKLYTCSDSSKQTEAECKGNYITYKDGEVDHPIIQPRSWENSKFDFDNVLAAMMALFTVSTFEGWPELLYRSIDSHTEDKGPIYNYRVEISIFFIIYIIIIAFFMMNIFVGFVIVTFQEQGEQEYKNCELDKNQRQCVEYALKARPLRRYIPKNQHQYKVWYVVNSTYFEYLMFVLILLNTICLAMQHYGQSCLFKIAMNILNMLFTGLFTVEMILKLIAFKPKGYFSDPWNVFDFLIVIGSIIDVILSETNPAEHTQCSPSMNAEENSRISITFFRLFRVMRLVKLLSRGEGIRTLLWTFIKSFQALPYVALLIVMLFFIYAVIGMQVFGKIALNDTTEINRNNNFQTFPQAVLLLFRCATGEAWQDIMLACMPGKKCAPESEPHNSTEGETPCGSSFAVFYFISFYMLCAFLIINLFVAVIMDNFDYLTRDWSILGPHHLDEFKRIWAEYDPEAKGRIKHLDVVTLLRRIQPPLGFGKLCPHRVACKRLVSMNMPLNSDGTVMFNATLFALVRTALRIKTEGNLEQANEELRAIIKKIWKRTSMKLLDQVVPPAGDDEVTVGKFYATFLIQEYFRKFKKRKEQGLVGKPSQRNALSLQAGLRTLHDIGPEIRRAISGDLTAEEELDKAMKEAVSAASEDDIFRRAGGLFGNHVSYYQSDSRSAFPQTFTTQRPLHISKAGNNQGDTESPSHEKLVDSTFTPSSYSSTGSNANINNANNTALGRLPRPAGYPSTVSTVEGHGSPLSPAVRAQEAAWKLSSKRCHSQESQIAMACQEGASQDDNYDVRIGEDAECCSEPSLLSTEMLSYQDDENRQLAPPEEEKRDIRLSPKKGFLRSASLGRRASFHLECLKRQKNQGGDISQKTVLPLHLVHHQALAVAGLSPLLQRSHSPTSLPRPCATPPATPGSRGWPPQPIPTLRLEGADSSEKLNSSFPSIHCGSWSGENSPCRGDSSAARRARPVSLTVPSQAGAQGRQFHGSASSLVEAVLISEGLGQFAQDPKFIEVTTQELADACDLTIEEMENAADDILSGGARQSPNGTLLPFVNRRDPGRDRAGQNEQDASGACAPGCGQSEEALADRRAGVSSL
# Sequence (P13806 27-960 partner limits assumed): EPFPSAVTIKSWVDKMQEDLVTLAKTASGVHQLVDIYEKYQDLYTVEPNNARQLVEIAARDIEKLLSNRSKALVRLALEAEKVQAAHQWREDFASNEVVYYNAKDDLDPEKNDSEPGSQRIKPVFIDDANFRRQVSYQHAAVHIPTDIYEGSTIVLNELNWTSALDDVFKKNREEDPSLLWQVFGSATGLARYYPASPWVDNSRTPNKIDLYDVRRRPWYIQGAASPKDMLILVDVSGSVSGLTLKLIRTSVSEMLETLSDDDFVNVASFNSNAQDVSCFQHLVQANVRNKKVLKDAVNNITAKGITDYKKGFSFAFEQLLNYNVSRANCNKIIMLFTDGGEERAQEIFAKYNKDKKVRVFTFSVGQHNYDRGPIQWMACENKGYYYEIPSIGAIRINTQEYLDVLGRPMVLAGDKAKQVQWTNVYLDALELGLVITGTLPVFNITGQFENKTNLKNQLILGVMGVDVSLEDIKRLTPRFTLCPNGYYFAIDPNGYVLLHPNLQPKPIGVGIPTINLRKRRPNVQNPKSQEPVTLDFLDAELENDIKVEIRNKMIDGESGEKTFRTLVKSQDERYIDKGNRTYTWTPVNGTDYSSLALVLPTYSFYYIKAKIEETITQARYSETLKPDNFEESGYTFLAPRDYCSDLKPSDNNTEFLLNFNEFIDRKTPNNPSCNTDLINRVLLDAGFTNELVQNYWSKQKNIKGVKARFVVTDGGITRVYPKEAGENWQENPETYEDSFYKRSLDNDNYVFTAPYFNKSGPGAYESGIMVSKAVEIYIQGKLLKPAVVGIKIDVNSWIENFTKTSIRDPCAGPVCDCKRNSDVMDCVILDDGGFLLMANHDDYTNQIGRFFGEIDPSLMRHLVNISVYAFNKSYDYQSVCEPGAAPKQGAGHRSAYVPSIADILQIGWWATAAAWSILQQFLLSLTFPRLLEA
# Sequence (P13806 961-1106 partner limits assumed): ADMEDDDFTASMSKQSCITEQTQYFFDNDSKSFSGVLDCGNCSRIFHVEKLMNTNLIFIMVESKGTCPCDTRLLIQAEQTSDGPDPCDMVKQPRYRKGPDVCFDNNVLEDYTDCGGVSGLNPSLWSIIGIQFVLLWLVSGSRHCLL
# testName: Calcium channel antagonism: relaxing action on extracted blood vessel (rabbit femoral artery, contracture by 50 mM KCl)
# conditionSummary: 50 mM KCl contracture, 50% of maximum relaxing (0.1 mM papaverine)
quantityKind: IC50 (nM)

Example compounds with recorded IC50:
compound: COc1ccc([C@@H]2Sc3cc(Cl)ccc3N(CCCN3CCN(c4ccccc4OC)CC3)C(=O)[C@@H]2OC(C)=O)cc1.Cl [Compound I-18, hydrochloride]
measureUnit: nM
resultNumber: 250
--
compound: COc1ccc([C@@H]2Sc3cc(Cl)ccc3N(CCN3CCC(c4ccccc4)CC3)C(=O)[C@@H]2OC(C)=O)cc1 (relative stereo) [Compound I-11]
measureUnit: nM
resultNumber: 200
--
compound: COc1ccc([C@@H]2Sc3cc(Cl)ccc3N(CCCN3CCN(C(c4ccccc4)c4ccc(Cl)cc4)CC3)C(=O)[C@@H]2OC(C)=O)cc1 (stereo partly drawn) [Compound I-22]
measureUnit: nM
resultNumber: 340
--
compound: COc1ccc([C@@H]2Sc3cc(Cl)ccc3N(CCCN3CCN(c4ccccc4OC)CC3)C(=O)[C@@H]2OC(C)=O)cc1 (relative stereo) [Compound I-8]
measureUnit: nM
resultNumber: 280

1. COc1ccc([C@@H]2Sc3cc(Cl)ccc3N(CCCN3CCN(Cc4ccc5c(c4)OCO5)CC3)C(=O)[C@@H]2OC(C)=O)cc1 (relative stereo) [Compound I-5]
2. COc1ccc([C@@H]2Sc3cc(C)ccc3N(CCCN3CCN(c4ccccc4OC)CC3)C(=O)[C@@H]2OC(C)=O)cc1 [Compound I-36]
IN: Lab note: record which item had the higher IC50, 1 or 2 . Reply briefly: the label of your chosen item.
OUT: 1

* * *

# Tested on: femoral artery
# testName: α-Blocking action: relaxing action on extracted blood vessel (rabbit femoral artery, contracture by 1 μM norepinephrine)
# conditionSummary: Oryctolagus cuniculus, 1 μM norepinephrine contracture, 50% of maximum relaxing (0.1 mM papaverine), read-out: Relaxing action on Blood Vessel IC50, 1 μM-NE
quantityKind: IC50 (nM)

compound: COc1ccc([C@@H]2Sc3cc(OC)ccc3N(CCCN3CCN(c4ccccc4OC)CC3)C(=O)[C@@H]2OC(C)=O)cc1
measureUnit: nM
IC50: 30
//
compound: COc1ccc([C@@H]2Sc3cc(Cl)ccc3N(CCCN3CCN(c4ccccc4OC)CC3)C(=O)[C@@H]2OC(C)=O)cc1.Cl [Compound I-18, hydrochloride]
measureUnit: nM
IC50: 37
//
compound: COc1ccc([C@@H]2Sc3cc(C)ccc3N(CCCN3CCN(c4ccccc4OC)CC3)C(=O)[C@@H]2OC(C)=O)cc1
measureUnit: nM
IC50: 20
//
compound: COc1ccc([C@@H]2Sc3ccccc3N(CCN(C)C)C(=O)[C@@H]2OC(C)=O)cc1 [Diltiazem, reference compound]
measureUnit: nM
IC50: 13300

1. COc1ccc([C@@H]2Sc3cc(Cl)ccc3N(CCCN3CCN(C(c4ccc(F)cc4)c4ccc(F)cc4)CC3)C(=O)[C@@H]2OC(C)=O)cc1 (relative stereo)
2. COc1ccc([C@@H]2Sc3cc(Cl)ccc3N(CCCN3CCN(c4ccccc4OC)CC3)C(=O)[C@@H]2OC(C)=O)cc1 (relative stereo)
IN: Could you determine which record has the numerically smaller IC50? Candidates: 1 and 2 Reply briefly: the label of your chosen item.
OUT: 2

* * *

# measuredTarget: Calcium Channel (Oryctolagus cuniculus)
# testName: Calcium channel antagonism: relaxing action on extracted blood vessel (rabbit femoral artery, contracture by 50 mM KCl)
# conditionSummary: 50 mM KCl contracture, 50% of maximum relaxing (0.1 mM papaverine)
# Method: Calcium Channel Antagonism and […] Action (Relaxing Action on Extracted Blood Vessel) Male rabbits weighing 2-3 kg (Rabiton, Japanese albino species) were anesthetized through intravenous administration of pentobarbital (50 mg/kg), and sacrificed by bloodletting through dissection of axillary artery. […] Isometric change of the tension of the specimen was recorded on a thermal recorder (Nippon Koden WT-685G) via F-D pickup Nippon Koden (TB611T) and Preamp (Nippon Koden). […]
quantityKind: IC50 (µM)

compound: COc1ccc([C@@H]2Sc3cc(Cl)ccc3N(CCCN3CCC(c4ccccc4)(c4ccccc4)CC3)C(=O)[C@@H]2OC(C)=O)cc1 (relative stereo)
IC50 / µM: 0.1

P. COc1ccc([C@@H]2Sc3cc(Cl)ccc3N(CCCN3CCN(C(c4ccccc4)c4ccc(Cl)cc4)CC3)C(=O)[C@@H]2OC(C)=O)cc1 (relative stereo) [Compound I-16]
Q. COc1ccc([C@@H]2Sc3cc(OC)ccc3N(CCCN3CCN(c4ccccc4OC)CC3)C(=O)[C@@H]2OC(C)=O)cc1
R. COc1ccc([C@@H]2Sc3cc(Cl)ccc3N(CCCN3CCN(C(c4ccc(F)cc4)c4ccc(F)cc4)CC3)C(=O)[C@@H]2OC(C)=O)cc1 (relative stereo)
IN: Please rank these compounds by IC50 in descending order. I would appreciate it if you listed the labels in the requested order.
OUT: P, Q, R

Source listed as patent US5462936A.
